Let's look at some compounds and their measured IC50.
Tested on: MOLM-13 cells
Assay Details: Cell viability assay (CellTiter-Glo) in MOLM-13 cells, alone or with gilteritinib
Assay type: cell-based
Condition Notes: Homo sapiens, MOLM-13, 72 h, MOLM-13 cells, compound alone (without gilteritinib), three days, CellTiter-Glo; read-out: MOLM-13 IC50

Prompt line: I have this compound here, Cc1cccc(-c2cnn(CCCCCCNc3ccc4c(c3)C(=O)N(C3CCC(=O)NC3=O)C4=O)c2)c1 (stereo not shown) , and I need its recorded IC50.
Response line: 100 to 1000 nM

Prompt line: Endpoint output: IC50 of O=C1CCC(N2C(=O)c3ccc(NC[C@H]4C[C@H](n5nc(C6CC6)c6cnccc65)C4)cc3C2=O)C(=O)N1 (stereo partly shown) . Value?
Response line: > 1000 nM

Prompt line: Quick one: IC50 for O=C1CCC(N2C(=O)c3ccc(C4CN(CCCCn5cc(-c6cnc7ccccc7n6)cn5)C4)cc3C2=O)C(=O)N1 (stereo not shown) ?
Response line: > 1000 nM

Prompt line: # input compound: O=C1CCC(N2C(=O)c3ccc(NCCC[C@H]4C[C@H](n5cc(-c6cccc(N7CCC(O)CC7)n6)cn5)C4)cc3C2=O)C(=O)N1 (stereo partly shown) ; wanted: its IC50
Response line: > 1000 nM

Prompt line: Fill blank: measured IC50 of the compound O=C1CCC(N2C(=O)c3ccc(NCCC[C@H]4C[C@@H](n5cc(-c6cnc7cc(N8CCNCC8)ccc7n6)cn5)C4)cc3C2=O)C(=O)N1 (stereo partly shown) is ____.
Response line: 100 to 1000 nM

Prompt line: Using the record for O=C1CCC(N2Cc3c(Nc4ccnc(NCCCN5CCC(n6cc(-c7cnc8ccccc8n7)cn6)CC5)n4)cccc3C2=O)C(=O)N1 (stereo not shown) , report its IC50.
Response line: > 1000 nM

Prompt line: Recorded IC50 of O=C1CCC(N2C(=O)c3ccc(NCCCCCC(=O)N4CCC(c5cnc6ccccc6c5)CC4)cc3C2=O)C(=O)N1 (stereo not shown) , please.
Response line: 10 to 100 nM

Origin of the recorded values: patent US20240050428A1
